Data origin, for the record: patent US20200247800A1

# pIC50 listing for each entry below
assay-system: human NOX4 (Homo sapiens)
Construct: membrane fraction used
Sequence (Q9NPH5 1-578): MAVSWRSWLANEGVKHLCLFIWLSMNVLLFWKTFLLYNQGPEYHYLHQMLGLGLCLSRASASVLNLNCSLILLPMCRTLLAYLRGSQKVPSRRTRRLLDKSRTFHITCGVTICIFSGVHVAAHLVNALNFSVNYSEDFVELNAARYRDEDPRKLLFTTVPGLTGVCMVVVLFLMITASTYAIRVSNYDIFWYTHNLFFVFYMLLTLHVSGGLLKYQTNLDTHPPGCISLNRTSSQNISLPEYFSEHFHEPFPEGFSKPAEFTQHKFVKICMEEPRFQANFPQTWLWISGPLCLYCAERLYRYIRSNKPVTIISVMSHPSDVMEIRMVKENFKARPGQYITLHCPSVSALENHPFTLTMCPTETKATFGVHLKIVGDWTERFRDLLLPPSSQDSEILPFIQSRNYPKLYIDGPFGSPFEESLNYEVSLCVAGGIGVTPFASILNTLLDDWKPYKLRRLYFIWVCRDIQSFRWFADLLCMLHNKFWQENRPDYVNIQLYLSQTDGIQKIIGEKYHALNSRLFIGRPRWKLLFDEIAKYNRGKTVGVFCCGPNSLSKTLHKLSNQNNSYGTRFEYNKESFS
Sequence (P13498 1-195 partner): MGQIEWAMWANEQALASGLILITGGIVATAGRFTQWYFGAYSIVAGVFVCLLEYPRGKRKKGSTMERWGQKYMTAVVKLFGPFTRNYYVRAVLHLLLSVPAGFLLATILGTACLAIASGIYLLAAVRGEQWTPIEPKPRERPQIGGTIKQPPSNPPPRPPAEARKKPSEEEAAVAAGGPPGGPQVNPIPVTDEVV
test-protocol: Cell free membrane based in vitro NOX4 assay: H2O2 production by membranes expressing human NOX4, measured with Amplex Red
assay-conditions: class symbols
pIC50: −log10 of the molar value.

line-notation	measured-attribute	data-value
COc1ccc(-c2[nH]c3c(c(C)nn3-c3ccc(F)cc3)c(=O)c2O)c(F)c1	pIC50	6.82 to 7.00
CCn1nc(C(F)(F)F)c2c(=O)c(O)c(-c3c(F)cccc3F)[nH]c21	pIC50	< 6.82
CCc1nn(CCN2CCOC(C)(C)C2=O)c2[nH]c(-c3c(F)cccc3F)c(O)c(=O)c12	pIC50	< 6.82
CCCn1nc(CO)c2c(=O)c(O)c(-c3c(F)cccc3F)[nH]c21	pIC50	7.00 to 7.30
Cc1nn(C)c2[nH]c(-c3ccc(OC(F)(F)F)c(F)c3)c(O)c(=O)c12	pIC50	< 6.82

Please find the next compound below.
For this compound ( O=c1c(O)c(-c2ccccc2Cl)[nH]c2sc(C(F)(F)F)nc12 ), measured pIC50 is < 6.82
